Listed here are compounds together with their documented selective drug sensitivity score.
System: RCH-ACV
Experiment: selective drug sensitivity score (sDSS, relative to normal bone marrow) (sDSS (score)); higher = more potent and effective on the cell line relative to normal bone marrow cells;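 also: ALL cell lines in 384-well plates, five doses spanning 10,000-fold, each plate scaled between vehicle and 100 µmol/L benzalkonium chloride controls, sDSS an adapted area-under-curve metric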
Conditions: 72 h
Keep it simple and answer with nothing but the number.

Look over these answered cases.
COMPOUND | selective drug sensitivity score
CC(C)N(CCCNC(=O)Nc1ccc(C(C)(C)C)cc1)C[C@H]1O[C@@H](n2cc(Br)c3c(N)ncnc32)[C@H](O)[C@@H]1O [SGC0946] (top concentration 10000 nM) | -0.82
CCN(c1cc(-c2ccc(CN3CCOCC3)cc2)cc(C(=O)NCc2c(C)cc(C)[nH]c2=O)c1C)C1CCOCC1 [Tazemetostat] (top concentration 10000 nM) | -0.08

Turning now to a further record.
-- ask Endpoint output: selective drug sensitivity score of Nc1ccccc1NC(=O)c1ccc(CNc2nccc(-c3cccnc3)n2)cc1 [Mocetinostat] (top concentration 10000 nM) . Value?
-- reply 9.54

* * *

Tested on: PEER
Test: selective drug sensitivity score (sDSS, relative to normal bone marrow) (sDSS (score)); higher = more potent and effective on the cell line relative to normal bone marrow cells
Conditions: 72 h
// reported selective drug sensitivity score for each item listed
Enter the number alone.

COMPOUND | ASSAYED_SYSTEM | selective drug sensitivity score
CC(C)(C)c1nc(-c2cccc(NS(=O)(=O)c3c(F)cccc3F)c2F)c(-c2ccnc(N)n2)s1 [Dabrafenib] (top concentration 2500 nM) | PEER | 3.48

-- ask Which selective drug sensitivity score value belongs to O=C(/C=C/c1cccc(S(=O)(=O)Nc2ccccc2)c1)NO [Belinostat] (top concentration 10000 nM) ?
-- reply 7.8

-- ask Which selective drug sensitivity score reading was recorded for the compound CCN(CC)CCNC(=O)c1c(C)[nH]c(/C=C2\C(=O)Nc3ccc(F)cc32)c1C [Sunitinib] (top concentration 1000 nM) ?
-- reply -0.24

-- ask Entry C#Cc1cccc(Nc2ncnc3cc(OCCOC)c(OCCOC)cc23)c1 [Erlotinib] (top concentration 10000 nM) : reported selective drug sensitivity score = ?
-- reply 5.16

-- ask Requested read-out: selective drug sensitivity score. Entry: CCN1CCN(c2ccc(Nc3cc(N(C)C(=O)Nc4c(Cl)c(OC)cc(OC)c4Cl)ncn3)cc2)CC1 [Infigratinib] (top concentration 1000 nM)
-- reply 0

-- ask Consider the compound shown here: COc1cc2c(NC3CCN(C(C)C)CC3)nc(C3CCCCC3)nc2cc1OCCCN1CCCC1 [UNC0638] (top concentration 10000 nM) What is its recorded selective drug sensitivity score?
-- reply 1.26

* * *

Catalogue of selective drug sensitivity score values
Tested on: LC4-1
Experiment: selective drug sensitivity score (sDSS, relative to normal bone marrow) (sDSS (score)); higher = more potent and effective on the cell line relative to normal bone marrow cells
Conditions: 72 h
Just the number, please.

These solved cases illustrate the format of a correct answer.
MOLECULE | ASSAYED_SYSTEM | selective drug sensitivity score
Cc1ccc(-c2cc(C(F)(F)F)nn2-c2ccc(S(N)(=O)=O)cc2)cc1 [Celecoxib] (top concentration 10000 nM) | LC4-1 | 1.24
CC(C)N(CCCNC(=O)Nc1ccc(C(C)(C)C)cc1)C[C@H]1O[C@@H](n2cc(Br)c3c(N)ncnc32)[C@H](O)[C@@H]1O [SGC0946] (top concentration 10000 nM) | LC4-1 | -1.02
C[C@@H]1CCN(C(=O)CC#N)C[C@@H]1N(C)c1ncnc2[nH]ccc12 [Tofacitinib] (top concentration 5000 nM) | LC4-1 | -7.86

-- ask Look up selective drug sensitivity score: CN(C)C(=O)c1ccc(S(=O)(=O)c2ccc(NC(=O)[C@@](C)(O)C(F)(F)F)c(Cl)c2)cc1 [AZD7545] (top concentration 10000 nM)
-- reply 1.6

-- ask Suppose we examine the molecule C[C@H](Nc1ncnc2nc[nH]c12)c1cc2cccc(Cl)c2c(=O)n1-c1ccccc1 [Duvelisib] (top concentration 500 nM) ; what selective drug sensitivity score value has been reported?
-- reply -0.94

-- ask Given the entry CN(c1ncccc1CNc1nc(Nc2ccc3c(c2)CC(=O)N3)ncc1C(F)(F)F)S(C)(=O)=O (top concentration 10000 nM) , report its measured selective drug sensitivity score.
-- reply 3.82

-- ask Please look up its selective drug sensitivity score: COc1cccc2c1C(=O)c1c(O)c3c(c(O)c1C2=O)C[C@@](O)(C(=O)CO)C[C@@H]3O[C@H]1C[C@H](N)[C@@H](O)[C@H](C)O1 [Epirubicin] (top concentration 1000 nM)
-- reply 7.62

-- ask State the recorded selective drug sensitivity score for this entry: CO[C@H](C(=O)[C@@H](O)[C@@H](C)O)[C@@H]1Cc2cc3cc(O[C@H]4C[C@@H](O[C@H]5C[C@@H](O)[C@H](O)[C@@H](C)O5)[C@@H](O)[C@@H](C)O4)c(C)c(O)c3c(O)c2C(=O)[C@H]1O[C@H]1C[C@@H](O[C@H]2C[C@@H](O[C@H]3C[C@](C)(O)[C@H](O)[C@@H](C)O3)[C@H](O)[C@@H](C)O2)[C@H](O)[C@@H](C)O1 [Plicamycin] (top concentration 10000 nM)
-- reply -16.7

-- ask Give the measured selective drug sensitivity score of Cc1c(-c2c(-c3ccc(F)o3)sc3ncnc(O[C@H](Cc4ccccc4OCc4ccnn4CC(F)(F)F)C(=O)O)c23)ccc(OCCN2CCN(C)CC2)c1Cl (top concentration 1000 nM) .
-- reply -0.54

-- ask Entry under review: CC[C@@H]1CN(C(=O)NCC(F)(F)F)C[C@@H]1c1cnc2cnc3[nH]ccc3n12 [Upadacitinib] (top concentration 10000 nM) . Reported selective drug sensitivity score?
-- reply -5.16

-- ask Record request: selective drug sensitivity score value, item CNC(=O)c1ccc(C)c(-n2c(C)cc(OCc3ccc(F)cc3F)c(Br)c2=O)c1 (top concentration 1000 nM)
-- reply 0

* * *

Test system: P12-ICHIKAWA
Assay: selective drug sensitivity score (sDSS, relative to normal bone marrow) (sDSS (score)); higher = more potent and effective on the cell line relative to normal bone marrow cells
Details: 72 h
Classification field: yes (1) = selective drug sensitivity score at or over 0.4; no (0) = selective drug sensitivity score under 0.4.

Check out these entries, answers already filled in.
COMPOUND | LABEL_CLASS
COc1cc2c(cc1-c1c(C)noc1C)ncc1[nH]c(=O)n([C@H](C)c3ccccn3)c12 [I-BET151] (top concentration 10000 nM) | yes (1)
Cc1nc(NC(=O)N2CCC[C@H]2C(N)=O)sc1-c1ccnc(C(C)(C)C(F)(F)F)c1 [Alpelisib] (top concentration 2500 nM) | no (0)
CCN(CC)CCNC(=O)c1c(C)[nH]c(/C=C2\C(=O)Nc3ccc(F)cc32)c1C [Sunitinib] (top concentration 1000 nM) | no (0)
C[C@H](Nc1ncnc2nc[nH]c12)c1cc2cccc(Cl)c2c(=O)n1-c1ccccc1 [Duvelisib] (top concentration 500 nM) | no (0)

-- ask Threshold query (selective drug sensitivity score >= 0.4) on CC(C)N(CCCNC(=O)Nc1ccc(C(C)(C)C)cc1)C[C@H]1O[C@@H](n2cc(Br)c3c(N)ncnc32)[C@H](O)[C@@H]1O [SGC0946] (top concentration 10000 nM)
-- reply no (0)

* * *

System: CCRF-CEM
Assay: selective drug sensitivity score (sDSS, relative to normal bone marrow) (sDSS (score)); higher = more potent and effective on the cell line relative to normal bone marrow cells
Conditions: 72 h
Binary classification by selective drug sensitivity score, with 1 as an inclusive lower bound for 1; all other cases are -1.

Below are worked cases with known answers.
COMPOUND | LABEL_CLASS
O=C(Nc1cccc(NC(=O)c2cccc(O)c2O)c1)c1cccc(O)c1O [MST-312] (top concentration 10000 nM) | 1
CC1(C)CCC(c2ccc(Cl)cc2)=C(CN2CCN(c3ccc(C(=O)NS(=O)(=O)c4ccc(N[C@H](CCN5CCOCC5)CSc5ccccc5)c(S(=O)(=O)C(F)(F)F)c4)cc3)CC2)C1 [Navitoclax] (top concentration 10000 nM) | 1
CC1(C)CCC(CN2CCN(c3ccc(C(=O)NS(=O)(=O)c4ccc(NCC5CCOCC5)c([N+](=O)[O-])c4)c(Oc4cnc5[nH]ccc5c4)c3)CC2)=C(c2ccc(Cl)cc2)C1 [Venetoclax] (top concentration 1000 nM) | -1

# next compound below
-- ask Determine whether this compound has selective drug sensitivity score no lower than 1: COc1ccc(COc2cc3oc(=O)c4cc(C(C)O)ccc4c3cc2OC)cc1 (stereo not given) [Palomid-529] (top concentration 10000 nM)
-- reply -1

* * *

Tested on: CCRF-CEM
Experiment: selective drug sensitivity score (sDSS, relative to normal bone marrow) (sDSS (score)); higher = more potent and effective on the cell line relative to normal bone marrow cells
Details: 72 h
Measured selective drug sensitivity score accompanies every entry in the list below.

COMPOUND | ASSAYED_SYSTEM | selective drug sensitivity score
CN1CCN(C2CCC(n3cc(-c4ccc(Oc5ccccc5)cc4)c4c(N)ncnc43)CC2)CC1 (stereo unspecified) (top concentration 10000 nM) | CCRF-CEM | 1.12

-- ask Need selective drug sensitivity score of CC[C@@]1(O)C(=O)OCc2c1cc1n(c2=O)Cc2cc3c(CN(C)C)c(O)ccc3nc2-1 [Topotecan] (top concentration 10000 nM) , thanks.
-- reply 21.2

-- ask selective drug sensitivity score lookup needed for CC(C)[C@H]1C(=O)N[C@@H](CCCNC(=N)N)C(=O)NCC(=O)N[C@@H](CC(=O)O)C(=O)N[C@H](Cc2ccccc2)C(=O)N1C [Cilengitide] (top concentration 10000 nM) , thanks.
-- reply 0

-- ask Given CC(C)[C@H](C(=O)Nc1ccc(C(=O)NO)cc1)c1ccccc1 [AR-42] (top concentration 10000 nM) , state its recorded selective drug sensitivity score.
-- reply 6.68

-- ask I am curious: what selective drug sensitivity score value has been reported for C[C@@H]1COCCN1c1cc(C2([S@](C)(=N)=O)CC2)nc(-c2cc[nH]c3nccc2-3)n1 [AZD6738] (top concentration 25000 nM) ?
-- reply 10.8

-- ask Which selective drug sensitivity score value belongs to O=C(O)CCCCC(CCSCc1ccccc1)SCc1ccccc1 (stereo unspecified) [Devimistat (CPI-613)] (top concentration 10000 nM) ?
-- reply 0
